# key: entry, value: drug sensitivity score
# Test system: SK-BR-3
# protocol-description: drug sensitivity score (DSS), CellTiter-Blue viability (DSS (AUC-based score)); higher = stronger viability inhibition; extreme values may be limits of the assay
# test-settings: incubation time: 72 h
Format: numeric value only, no unit, no commentary.

Please review the following examples before continuing.
compound	drug sensitivity score
CC(C)C[C@H](NC(=O)[C@@H](COC(C)(C)C)NC(=O)[C@H](Cc1ccc(O)cc1)NC(=O)[C@H](CO)NC(=O)[C@H](Cc1c[nH]c2ccccc12)NC(=O)[C@H](Cc1cnc[nH]1)NC(=O)[C@@H]1CCC(=O)N1)C(=O)N[C@@H](CCCNC(=N)N)C(=O)N1CCC[C@H]1C(=O)NNC(N)=O [Goserelin]	0
CN(Cc1cnc2nc(N)nc(N)c2n1)c1ccc(C(=O)N[C@@H](CCC(=O)O)C(=O)O)cc1 [Methotrexate]	16.2

Task: Reported drug sensitivity score for CC(C)(C)NC(=O)[C@H]1CC[C@H]2[C@@H]3CC[C@H]4NC(=O)C=C[C@]4(C)[C@H]3CC[C@]12C [Finasteride] : what is it?
Result: 0
